- Target Desc: human CB2 receptors (Homo sapiens, UniProt P34972)
- Construct: expressed in transfected cells; host or cells: CHO cells
- Sequence (P34972 whole entry): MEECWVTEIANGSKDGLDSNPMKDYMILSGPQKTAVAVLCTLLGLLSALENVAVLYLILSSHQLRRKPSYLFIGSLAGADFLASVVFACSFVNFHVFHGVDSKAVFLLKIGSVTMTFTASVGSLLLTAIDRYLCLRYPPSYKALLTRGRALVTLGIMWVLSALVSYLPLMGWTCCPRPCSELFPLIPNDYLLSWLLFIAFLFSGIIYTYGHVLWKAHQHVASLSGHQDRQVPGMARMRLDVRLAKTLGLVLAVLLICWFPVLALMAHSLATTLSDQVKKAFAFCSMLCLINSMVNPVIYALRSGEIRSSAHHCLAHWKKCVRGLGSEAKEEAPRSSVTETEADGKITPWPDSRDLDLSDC
- Assay Remarks: cAMP assay human CB2
- Assay type: cell-based
Below, each of the molecules is paired with its reported pEC50 value.
pEC50 is a log-scale quantity: -log10 of the concentration expressed in molar.

Take a look at these entries with their results.
molecule="O=C(N[C@@H](c1ccccn1)C(F)(F)F)c1cc(OCC2CC2)c(Cl)cn1 [Example 9]" measurement=6.53
molecule="O=C(N[C@@H]1CCCC[C@@H]1O)c1cc(-c2ccc(Cl)cc2)c(OCC2CC2)cn1 [Example 2]" measurement=6.59
molecule="Cc1nc(C(C)(CC2CC2)NC(=O)c2cc(OCC3(C)CC3(F)F)c(Cl)cn2)no1 (centres unmarked) [Example 20]" measurement=6.38
molecule="O=C(N[C@@H](CO)c1ccccc1)c1cc(OCC2CC2)c(Cl)cn1 [Example 7]" measurement=6.30
molecule="CO[C@H]1CCCC[C@H]1NC(=O)c1cc(-c2ccc(Cl)cc2)c(OCC2CC2)cn1 [Example 6]" measurement=6.91
molecule="CCC(CC)(NC(=O)c1cc(-c2ccc(Cl)c(Cl)c2)c(OCC2CC2)cn1)C(=O)OC [Example 5]" measurement=8.16

Item under review: CC(C)(C)c1nc(-c2cc(OCC3CC3)c(N3CC4(COC4)C3)cn2)no1 [Example 14] . Reported pEC50?
7.44

Item under review: CNC(=O)[C@@H](CC(C)C)NC(=O)c1cc(OCC2CC2)c(Cl)cn1 [Example 12] . Reported pEC50?
5.49

* * *

- Target Desc: human CB2 receptors (Homo sapiens, UniProt P34972)
- Construct: expressed in transfected cells; host or cells: CHO cells
- Assay Remarks: cAMP assay human CB2
- Assay type: cell-based
pEC50: −log10 of the molar value.
Classification field: 1 = pEC50 at or over 7; -1 = pEC50 under 7.

compound="CC(C)(C)OC(=O)N1CCC[C@H]1COc1cc(-c2noc(C(C)(C)C)n2)ncc1C1CC1 [Example 15]" target_desc="human CB2 receptors (Homo sapiens, UniProt P34972)" label_class=-1
compound="CC(C)C[C@@H](CO)NC(=O)c1cc(-c2ccc(Cl)cc2Cl)c(OCC2CC2)cn1 [Example 1]" target_desc="human CB2 receptors (Homo sapiens, UniProt P34972)" label_class=1
compound="O=C(N[C@H]1CCCC[C@H]1O)c1cc(-c2ccc(Cl)cc2)c(OCC2CC2)cn1 [Example 3]" target_desc="human CB2 receptors (Homo sapiens, UniProt P34972)" label_class=1
compound="CC(CC(N)=O)(NC(=O)c1cc(OCc2ccc(F)cn2)c(C2CC2)cn1)C1CC1 (centres unmarked) [Example 22]" target_desc="human CB2 receptors (Homo sapiens, UniProt P34972)" label_class=1

# check: pEC50 of CCC(CC)(NC(=O)c1cc(-c2ccc(Cl)cc2)c(OCC2CC2)cn1)C(=O)OC [Example 4] is greater than or equal to 7
1

# check: pEC50 of CC(C)(C)OC(=O)N1CC[C@@H](Oc2cc(-c3noc(C(C)(C)C)n3)ncc2C2CC2)C1 [Example 16] is greater than or equal to 7
-1

* * *

- Target Desc: human CB2 receptors (Homo sapiens)
- Construct: expressed in transfected cells; host or cells: CHO cells
- Assay Remarks: cAMP assay human CB2
- Assay type: cell-based
Experimental Endpoint: pEC50
pEC50 is a log-scale quantity: -log10 of the concentration expressed in molar.

Take a look at these entries with their results.
molecule="O=C(N[C@H](c1cccnc1)C(F)(F)F)c1cc(OCC2CC2)c(Cl)cn1 [Example 10]" measurement=5.81
molecule="CNC(=O)[C@@H](NC(=O)c1cc(OCC2CC2)c(Cl)cn1)C(C)(C)C [Example 8]" measurement=8.36
molecule="Cc1nc([C@](C)(CC2CC2)NC(=O)c2cc(-c3ccc(F)nc3)c(OCc3ccccc3)cn2)no1 [Example 23]" measurement=5.99

We next turn to a different molecule, shown below.
Requested read-out pEC50, target or system human CB2 receptors (Homo sapiens), entry CNC(=O)[C@H](CC(C)C)NC(=O)c1cc(OCC2CC2)c(Cl)cn1 [Example 11]
6.74

Data provenance is patent US11117903B2.
